target: T1, human programmed cell death protein 1 (hPD-1) C93S (aa 24-167) (Homo sapiens, UniProt Q15116, C93S); experiment: SPR; Carterra LSA; Fab from the ammonium sulfate precipitate of the culture supernatant immobilised on a NiHC200M chip; hPD-1 (1-1024 nM) or mPD-1-Fc (4-1024 nM) as analyte, fourfold dilution series, no regeneration; HBS-EP pH 7.4, 25 °C; medians over the spots of a construct, KD = koff/kon; details: one partner purified
T1 construct: made as a fusion with a TEV site and human Fc; the Fc was cut off with TEV protease; source: Expi293F, purified (Protein A, TEV cleavage of Fc, SEC; monomer fractions); not shown: Fc (human), C-terminal, cleaved
T1 sequence (Q15116 24-167 C93S): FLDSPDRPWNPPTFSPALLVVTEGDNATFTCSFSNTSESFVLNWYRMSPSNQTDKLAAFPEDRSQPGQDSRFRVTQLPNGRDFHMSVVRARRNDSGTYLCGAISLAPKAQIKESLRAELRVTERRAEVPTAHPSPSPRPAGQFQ
Metric Name: kon (M⁻¹ s⁻¹)
Give bare numbers, in M⁻¹ s⁻¹.

Example binders with recorded kon:
INSERT INTO assay_data (binder, units_label, measured_number) VALUES
  ('toripalimab Fab H.M34Y (Fab, V domains shown, heavy chain of Sm3 with this change; numbers count from the chain''s first residue; as the light chain of Sm3; source: Brevibacillus, culture supernatant (ammonium sulfate precipitate); not shown: 6xHis, C-terminal, kept; 6xHN, C-terminal, kept) VH: QGQLVQSGAEVKKPGASVKVSCKASGYTFTDYEYHWVRQAPIHGLEWIGVIESETGGTAYNQKFKGRVTITADKSTSTAYMELSSLRSEDTAVYYCAREGITTVATTYYWYFDVWGQGTTVTVSS VL: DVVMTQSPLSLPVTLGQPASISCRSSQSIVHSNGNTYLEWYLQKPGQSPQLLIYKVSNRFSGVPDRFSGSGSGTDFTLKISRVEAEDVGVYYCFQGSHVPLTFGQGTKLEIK', 'M⁻¹ s⁻¹', 24200),
  ('toripalimab Fab L.G34A (Fab, V domains shown, as the heavy chain of Sm3; light chain of Sm3 with this change; numbers count from the chain''s first residue; source: Brevibacillus, culture supernatant (ammonium sulfate precipitate); not shown: 6xHis, C-terminal, kept; 6xHN, C-terminal, kept) VH: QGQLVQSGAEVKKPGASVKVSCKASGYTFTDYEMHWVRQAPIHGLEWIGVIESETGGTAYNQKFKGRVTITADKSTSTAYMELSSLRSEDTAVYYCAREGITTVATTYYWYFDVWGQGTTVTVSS VL: DVVMTQSPLSLPVTLGQPASISCRSSQSIVHSNANTYLEWYLQKPGQSPQLLIYKVSNRFSGVPDRFSGSGSGTDFTLKISRVEAEDVGVYYCFQGSHVPLTFGQGTKLEIK', 'M⁻¹ s⁻¹', 20500);

## Input May I ask what kon has been recorded for toripalimab Fab H.G56A (Fab, V domains shown, heavy chain of Sm3 with this change; numbers count from the chain's first residue; as the light chain of Sm3; source: Brevibacillus, culture supernatant (ammonium sulfate precipitate); not shown: 6xHis, C-terminal, kept; 6xHN, C-terminal, kept) VH: QGQLVQSGAEVKKPGASVKVSCKASGYTFTDYEMHWVRQAPIHGLEWIGVIESETAGTAYNQKFKGRVTITADKSTSTAYMELSSLRSEDTAVYYCAREGITTVATTYYWYFDVWGQGTTVTVSS VL: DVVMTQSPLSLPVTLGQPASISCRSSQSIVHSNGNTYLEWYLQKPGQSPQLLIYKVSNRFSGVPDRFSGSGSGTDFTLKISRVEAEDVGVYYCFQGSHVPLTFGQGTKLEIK ?
## Output 6870
